Origin of the recorded values: patent US20260083703A1

- protocol.notes: Liver microsomes stability, mouse
- run.conditions: With NADPH, 30 min
measured.metric: Remaining Percentage
In your response, the unit should come after the numeric value.

Consider the reported Remaining Percentage for these molecules:
Problem: Find the measured Remaining Percentage of CN1CCC[C@@H]1C[C@H]1CNc2ccc(F)cc21 [(R),(R)-I-47] and report it.
Solution: 114.03%

Problem: Find the measured Remaining Percentage of COc1ccc2c(c1)C(C[C@H]1CCCN1C)CN2 (stereo partly drawn) [(R)-I-54] and report it.
Solution: 34.74%

Problem: Find the measured Remaining Percentage of COc1ccc2c(c1)C(C[C@H]1CCCN1)CN2 (stereo partly drawn) [(R)-I-165] and report it.
Solution: 90.44%

Next molecule, Remaining Percentage to be filled in.
Problem: Find the measured Remaining Percentage of COc1cccc2c1C(C[C@H]1CCCN1C)CN2 (stereo partly drawn) [(R)-I-94] and report it.
Solution: 0.84%
